// values below are reported MIC
Test system: Enterococcus faecium
Assay: Antibacterial activity against Enterococcus faecium by broth microdilution method
Assay type: functional
# number only, unit µg/mL dropped from output

Recorded MIC, per entry:
>  <compound_structure_string>
CCCC[C@H]1CN[C@@H]1C(=O)N[C@@H]([C@H]1O[C@H](SC)[C@H](O)[C@@H](O)[C@H]1O)[C@H](C)Cl

>  <endpoint_unit>
µg/mL

>  <numeric_readout>
0.125

$$$$
>  <compound_structure_string>
CS[C@H]1O[C@H]([C@H](NC(=O)[C@H]2NC[C@@H]2CCC(C)C)[C@H](C)Cl)[C@H](O)[C@H](O)[C@H]1O

>  <endpoint_unit>
µg/mL

>  <numeric_readout>
0.5

$$$$
>  <compound_structure_string>
CCC[C@H]1CN[C@@H]1C(=O)N[C@@H]([C@H]1O[C@H](SC)[C@H](O)[C@@H](O)[C@H]1O)[C@H](C)Cl

>  <endpoint_unit>
µg/mL

>  <numeric_readout>
0.5

$$$$
>  <compound_structure_string>
CS[C@H]1O[C@H]([C@H](NC(=O)[C@H]2NC[C@@H]2CCCC2CC2)[C@H](C)Cl)[C@H](O)[C@H](O)[C@H]1O

>  <endpoint_unit>
µg/mL

>  <numeric_readout>
0.125

$$$$

Prompt line: Fill in: MIC of `CS[C@H]1O[C@H]([C@H](NC(=O)[C@H]2NC[C@@H]2CCC2CC2)[C@H](C)Cl)[C@H](O)[C@H](O)[C@H]1O` is ___
Response line: 0.125

Prompt line: Fill in: MIC of `CCCC[C@H]1CN(C)[C@@H]1C(=O)N[C@@H]([C@H]1O[C@H](SC)[C@H](O)[C@@H](O)[C@H]1O)[C@H](C)Cl` is ___
Response line: 1

Prompt line: Fill in: MIC of `CS[C@H]1O[C@H]([C@H](NC(=O)[C@H]2NC[C@@H]2CCCC2CCC2)[C@H](C)Cl)[C@H](O)[C@H](O)[C@H]1O` is ___
Response line: 0.06

---

Tested on: Enterococcus faecium
Experiment: Antibacterial activity against Enterococcus faecium by broth microdilution method
Assay type: functional
quantity: MIC (µg/mL)
# number only, unit µg/mL dropped from output

Recorded MIC, per entry:
>  <compound_structure_string>
CCCCC[C@H]1CN[C@@H]1C(=O)N[C@@H]([C@H]1O[C@H](SC)[C@H](O)[C@@H](O)[C@H]1O)[C@H](C)Cl

>  <numeric_readout>
0.125

$$$$
>  <compound_structure_string>
CS[C@H]1O[C@H]([C@H](NC(=O)[C@H]2NC[C@@H]2CCC2CCC2)[C@H](C)Cl)[C@H](O)[C@H](O)[C@H]1O

>  <numeric_readout>
0.25

$$$$

In the following, a different molecule is considered.
Prompt line: Fill in: MIC of `CCCC[C@H]1CN(CCO)[C@@H]1C(=O)N[C@@H]([C@H]1O[C@H](SC)[C@H](O)[C@@H](O)[C@H]1O)[C@H](C)Cl` is ___
Response line: 0.25

---

System: Enterococcus faecium
Test: Antibacterial activity against Enterococcus faecium by broth microdilution method
Type: functional
quantity: MIC (µg/mL)
# number only, unit µg/mL dropped from output

Recorded MIC, per entry:
>  <compound>
CS[C@H]1O[C@H]([C@H](NC(=O)[C@H]2NC[C@@H]2CCC(F)F)[C@H](C)Cl)[C@H](O)[C@H](O)[C@H]1O

>  <numeric_readout>
0.5

$$$$
>  <compound>
CCC[C@@H]1C[C@@H](C(=O)N[C@@H]([C@H]2O[C@H](SC)[C@H](O)[C@@H](O)[C@H]2O)[C@H](C)Cl)N(C)C1 [CLINDAMYCIN]

>  <numeric_readout>
0.125

$$$$

In the following, a different compound is considered.
Prompt line: Form: Entry = `CS[C@H]1O[C@H]([C@H](NC(=O)[C@H]2NC[C@@H]2CC2CC2)[C@H](C)Cl)[C@H](O)[C@H](O)[C@H]1O` | System = Enterococcus faecium | MIC = ____
Response line: 0.5
